Target: proMMP9(67-444;ΔFnII) (SEQ ID NO:5) (Homo sapiens, UniProt P14780, DEL216-390)
Construct: start methionine (N)
Sequence (P14780 with tags, fused parts or gaps DEL216-390): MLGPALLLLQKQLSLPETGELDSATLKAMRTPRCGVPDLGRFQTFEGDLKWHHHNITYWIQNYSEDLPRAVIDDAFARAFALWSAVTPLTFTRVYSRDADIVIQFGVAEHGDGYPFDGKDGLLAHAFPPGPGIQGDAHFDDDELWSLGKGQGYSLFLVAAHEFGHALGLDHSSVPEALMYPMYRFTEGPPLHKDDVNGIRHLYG
Experiment: ThermoFluor binding assay with proMMP9(67-444;ΔFnII)
Description: The ThermoFluor® (TF) assay is a 384-well plate-based binding assay that measures thermal stability of proteins (Biomol Screen 2001, 6, 429-40; Biochemistry 2005, 44, 5258-66). The experiments were carried out using instruments available from Johnson & Johnson Pharmaceutical Research & Development, LLC. TF dye used in all experiments was […] (1,8-ANS) (Invitrogen: A-47). […]
Endpoint label: Kd (µM)

| Given smiles | Target or system | Kd (µM) |
| --- | --- | --- |
| CC(C)Oc1ccc(C(N)=O)cc1Nc1nc(-c2ccnc(Cl)c2)cs1 | proMMP9(67-444;ΔFnII) (SEQ ID NO:5) (Homo sapiens, UniProt P14780, DEL216-390) | 4.1 |

[a] CCN1CCCN(C(=O)c2ccc(-c3csc(Nc4cc(S(N)(=O)=O)ccc4OC(C)C)n3)cn2)CC1
[b] CC(C)Oc1ccc(S(N)(=O)=O)cc1Nc1nc(-c2ccc(C(=O)N3CCN(C)CC3)nc2)cs1
Please compare: a and b . Report which one has the smaller Kd value. Your choice should be expressed through its label.
a
(a: 2.2 µM, b: 6.6 µM)

[a] CN1CCN(c2ccc(-c3csc(Nc4cc(C(N)=O)ccc4OC(F)(F)F)n3)cn2)CC1
[b] COc1cc(C)c(C(N)=O)cc1Nc1nc(-c2ccc(N3CCN(C)CC3)nc2)cs1
// which entry has the larger Kd value, a or b ? Write down the label attached to your selection.
b

Cited source: patent US20120129843A1
